- testTarget: papain (Carica papaya)
- Construct: purchased Sigma Chem. Co
- assayInfo: Papain inhibitory activity (milk casein proteolysis)
- Format: biochemical
- Parameters: unit not given beside the values
- testParameters: amount of inhibitor for 50% inhibition; pH 6.8, 40° C., casein substrate
// reported ID50 per item
readoutType: ID50

molecule="CC#CCOC(=O)[C@H]1O[C@@H]1C(=O)NCC (relative stereo) [Compound No. 41, 2'-Butynyl N-ethyl-2,3-epoxysuccinamate]" readouttype=ID50 result="15.23 γ"
molecule="CCOC(=O)[C@@H]1O[C@H]1C(=O)Nc1ccc([N+](=O)[O-])cc1 (relative stereo)" readouttype=ID50 result="22.32 γ"
molecule="CC(C)CCOC(=O)[C@H]1O[C@@H]1C(=O)Nc1ccccc1 (relative stereo) [Compound No. 43, Isoamyl N-phenyl-2,3-epoxysuccinamate]" readouttype=ID50 result="3.01 γ"
molecule="CCOC(=O)[C@@H]1O[C@H]1C(=O)Nc1c(Cl)cccc1Cl (relative stereo)" readouttype=ID50 result="208.33 γ"
molecule="CCOC(=O)[C@@H]1O[C@H]1C(=O)Nc1ccccc1C(=O)O (relative stereo)" readouttype=ID50 result="36.76 γ"
molecule="CN1CCN(C(=O)[C@H]2O[C@@H]2C(=O)OCC2CCCC2)CC1 (relative stereo)" readouttype=ID50 result="146.51 γ"
molecule="C=CCOC(=O)[C@H]1O[C@@H]1C(=O)NCC1CCCC1 (relative stereo)" readouttype=ID50 result="4.26 γ"
molecule="CCCOC(=O)[C@@H]1O[C@H]1C(=O)Nc1ccc(I)cc1 (relative stereo)" readouttype=ID50 result="4.04 γ"
molecule="CCOC(=O)[C@@H]1O[C@H]1C(=O)N1CCOCC1 (relative stereo)" readouttype=ID50 result="93.28 γ"
molecule="CCOC(=O)[C@@H]1O[C@H]1C(=O)N1CCOC(C)C1 (stereo partly drawn)" readouttype=ID50 result="95.10 γ"
molecule="CCOC(=O)[C@H]1O[C@@H]1C(=O)Nc1cccc(C)c1 (relative stereo)" readouttype=ID50 result="18.66 γ"
molecule="CCOC(=O)[C@@H]1O[C@H]1C(=O)N(C)CC1CCCCC1 (relative stereo)" readouttype=ID50 result="71.40 γ"
molecule="O=C(NC1CCCC1)[C@H]1O[C@@H]1C(=O)Oc1ccccc1 (relative stereo)" readouttype=ID50 result="3.64 γ"
molecule="O=C(Nc1ccccc1)[C@@H]1O[C@H]1C(=O)OCCC1CCCC1 (relative stereo)" readouttype=ID50 result="2.08 γ"
molecule="O=C(OCc1ccccc1)[C@@H]1O[C@H]1C(=O)N1CCCCC1 (relative stereo)" readouttype=ID50 result="34.23 γ"

----------
// reported ID50 per item
- testTarget: papain (Carica papaya, UniProt P00784)
- Construct: purchased Sigma Chem. Co
- Sequence (P00784 134-345): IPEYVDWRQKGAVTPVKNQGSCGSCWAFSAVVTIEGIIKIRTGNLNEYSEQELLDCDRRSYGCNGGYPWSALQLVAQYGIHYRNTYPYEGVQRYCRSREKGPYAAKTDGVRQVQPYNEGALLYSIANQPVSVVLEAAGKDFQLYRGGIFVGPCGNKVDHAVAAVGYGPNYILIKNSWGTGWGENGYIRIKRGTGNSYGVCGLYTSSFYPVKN
- assayInfo: Papain inhibitory activity (milk casein proteolysis)
- Type: biochemical
- Set-up: unit not given beside the values
- testParameters: amount of inhibitor for 50% inhibition; pH 6.8, 40° C., casein substrate
readoutType: ID50

compound="CNC(=O)[C@H]1O[C@@H]1C(=O)OCc1ccccc1 (relative stereo) [Compound No. 91, Benzyl N-methyl-2,3-epoxysuccinamate]" result="9.68 γ"
compound="CCOC(=O)[C@@H]1O[C@H]1C(=O)Nc1cccc(F)c1 (relative stereo)" result="32.05 γ"
compound="O=C(NC1CCCCC1)[C@H]1O[C@@H]1C(=O)OC1CCCCC1 (relative stereo)" result="3.14 γ"
compound="CCOC(=O)[C@@H]1O[C@H]1C(=O)Nc1cc(Cl)ccc1C(=O)O (relative stereo)" result="277.80 γ"
compound="CC(C)OC(=O)[C@@H]1O[C@H]1C(=O)Nc1ccccc1 (relative stereo) [Compound No. 93, isopropyl N-phenyl-2,3-epoxysuccinamate]" result="21.55 γ"
compound="COC(=O)[C@H]1O[C@@H]1C(=O)NC1CCCCC1 (relative stereo) [Compound No. 61, Methyl N-cyclohexyl-2,3-epoxysuccinamate]" result="19.65 γ"
compound="CCOC(=O)[C@@H]1O[C@H]1C(=O)N1CCCC1C (relative stereo)" result="130.10 γ"
compound="CCOC(=O)[C@@H]1O[C@H]1C(=O)Nc1c(Br)cc(Br)cc1Br (relative stereo)" result="120.19 γ"
compound="O=C(O)[C@@H]1O[C@H]1C(=O)NC1CCCCC1 (relative stereo) [Compound No. 100, sodium N-cyclohexyl-2,3-epoxysuccinamate]" result="0.231 γ"
compound="CCCCOC(=O)C1CCCN1C(=O)C1OC1C(=O)OCC (stereo not drawn)" result="118.41 γ"
compound="CCOC(=O)[C@@H]1O[C@H]1C(=O)NC1CCCC1 (relative stereo) [Compound No. 18, ethyl N-cyclopentyl-2,3-epoxysuccinamate]" result="22.36 γ"
compound="CCOC(=O)[C@@H]1O[C@H]1C(=O)NCC1CC1 (relative stereo)" result="130.20 γ"
compound="CCNC(=O)[C@H]1O[C@@H]1C(=O)O (relative stereo) [Compound No. 102, Potassium N-ethyl-2,3-epoxysuccinamate]" result="1.34 γ"
compound="CCOC(=O)C1OC1C(=O)N1CCCC1C(=O)OCc1ccccc1 (stereo not drawn)" result="105.50 γ"
compound="CCCOC(=O)[C@H]1O[C@@H]1C(=O)NC(C)C (relative stereo) [Compound No. 64, Propyl N-isopropyl-2,3-epoxysuccinamate]" result="8.32 γ"
compound="CCNC(=O)[C@H]1O[C@@H]1C(=O)OC(C)C (relative stereo) [Compound No. 65, Isopropyl N-ethyl-2,3-epoxysuccinamate]" result="13.65 γ"
compound="CCOC(=O)[C@@H]1O[C@H]1C(=O)NCCC(C)C (relative stereo) [Compound No. 17, ethyl N-isoamyl-2,3-epoxysuccinamate]" result="28.41 γ"
compound="CCOC(=O)[C@H]1O[C@@H]1C(=O)N(C)Cc1ccccc1 (relative stereo)" result="231.50 γ"
compound="O=C(NCc1ccccc1)[C@H]1O[C@@H]1C(=O)Oc1ccccc1 (relative stereo) [Compound No. 48, Phenyl N-benzyl-2,3-epoxysuccinamate]" result="3.83 γ"
compound="CCOC(=O)[C@@H]1O[C@H]1C(=O)Nc1ccccn1 (relative stereo)" result="25.05 γ"
compound="COC(=O)[C@H]1O[C@@H]1C(=O)N1CCOCC1 (relative stereo)" result="90.25 γ"
compound="O=C(O)[C@@H]1O[C@H]1C(=O)Nc1ccccc1 (relative stereo) [Compound No. 104, Sodium N-phenyl-2,3-epoxysuccinamate]" result="0.315 γ"
compound="COC(=O)[C@H]1O[C@@H]1C(=O)Nc1ccccc1 (relative stereo) [Compound No. 50, methyl N-phenyl-2,3-epoxysuccinamate]" result="16.95 γ"
compound="CCNC(=O)[C@H]1O[C@@H]1C(=O)OC (relative stereo) [Compound No. 54, methyl N-ethyl-2,3-epoxysuccinamate]" result="10.07 γ"
compound="CCOC(=O)[C@H]1O[C@@H]1C(=O)NCCCCNC(=O)OCc1ccccc1 (relative stereo)" result="24.04 γ"
compound="O=C(NC1CCCCC1)[C@@H]1O[C@H]1C(=O)OC1CCCC1 (relative stereo)" result="3.68 γ"
compound="CCOC(=O)[C@@H]1O[C@H]1C(=O)NC1CCCCC1 (relative stereo) [Compound No. 19, ethyl N-cyclohexyl-2,3-epoxysuccinamate]" result="20.83 γ"

Reference source: patent US4387238A
